- Target Desc: nuclear receptor for 1α,25(OH)2 D3 [VDRnuc] (Gallus gallus, UniProt O42392)
- Construct: VDRnuc receptor preparation from chick intestine mucosa; from tissue; host or cells: chick intestinal mucosa
- Sequence (O42392 whole entry): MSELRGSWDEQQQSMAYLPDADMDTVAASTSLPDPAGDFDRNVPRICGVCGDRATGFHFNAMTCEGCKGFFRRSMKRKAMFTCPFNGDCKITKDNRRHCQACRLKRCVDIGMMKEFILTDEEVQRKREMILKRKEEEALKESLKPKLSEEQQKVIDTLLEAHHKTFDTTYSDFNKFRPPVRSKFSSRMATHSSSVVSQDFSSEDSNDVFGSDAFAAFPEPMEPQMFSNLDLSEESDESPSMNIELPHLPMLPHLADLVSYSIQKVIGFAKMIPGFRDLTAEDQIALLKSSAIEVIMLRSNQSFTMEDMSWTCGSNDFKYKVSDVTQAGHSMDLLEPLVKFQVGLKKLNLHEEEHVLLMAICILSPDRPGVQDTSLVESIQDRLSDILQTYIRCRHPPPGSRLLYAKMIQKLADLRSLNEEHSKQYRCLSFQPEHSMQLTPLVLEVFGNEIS
- Measurement Description: Relative Competitive Index (steroid competition) assay, nuclear receptor VDRnuc
- Format: binding, chick
- Design: key: % relative to 1α,25(OH)2D3 binding (RCI = 100%)
- Test Context: RCI of 1α,25(OH)2 D3 = 100
Parameter: Nuclear 1α,25-D Receptor (RCI)
One number for each entry.

C=C1CC[C@H](O)C/C1=C/C=C1\CCC[C@]2(C)[C@@H]([C@H](C)Cc3ccc(O)cc3)CC[C@@H]12    0.002
CC1=C(C=C=C2CCC[C@]3(C)[C@@H]([C@H](C)CCCC(C)(C)O)CC[C@@H]23)C[C@@H](O)C[C@@H]1O [JW]    2.6
C=C1/C(=C\C=C2/CCC[C@]3(C)[C@@H]([C@H](C)Cc4cccc(C(C)(C)O)c4)CC[C@@H]23)C[C@@H](O)C[C@@H]1O    62

Note: attention shifts to another entry.
Give Nuclear 1α,25-D Receptor (RCI) (nuclear receptor for 1α,25(OH)2 D3 [VDRnuc] (Gallus gallus, UniProt O42392)) of the following compound: C[C@H](CCCC(C)(C)O)[C@H]1CC[C@H]2C3=CC=C4C[C@@H](O)C[C@H](O)[C@]4(C)[C@H]3CC[C@]12C
0.1
